# assayed_system: T1, Soluble heterodimeric CD3 protein (hCD3-epsilon/hCD3-delta) with a human Fc tag (hFcΔAdp/hFc) or a mouse Fc … (human, UniProt P07766 23-126; P04234 22-105)
# T1 construct: also called hCD3ε/δ; not shown: Fc tag: human (hFcΔAdp/hFc); which tag was used in Ta
# T1 sequence (P07766 23-126 limits assumed, stated change not applied, chain 1 of 2): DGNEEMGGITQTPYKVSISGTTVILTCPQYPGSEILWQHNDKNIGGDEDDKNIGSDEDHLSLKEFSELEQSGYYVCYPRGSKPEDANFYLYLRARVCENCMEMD
# T1 sequence (P04234 22-105 limits assumed, stated change not applied, chain 2 of 2): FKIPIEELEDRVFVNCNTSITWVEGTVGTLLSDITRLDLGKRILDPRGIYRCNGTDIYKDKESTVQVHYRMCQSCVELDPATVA
# assay_notes: SPR Biacore, 25 C, antibody-capture format
endpoint_name: koff (s⁻¹)
Value expressed in s⁻¹; do not type the unit.

Recorded koff, per entry:
| binder | uom | observed_result |
| --- | --- | --- |
| H2M2775N (antibody, V domains shown, Hybridoma antibody, human variable regions, mouse IgG2 Fc) VH: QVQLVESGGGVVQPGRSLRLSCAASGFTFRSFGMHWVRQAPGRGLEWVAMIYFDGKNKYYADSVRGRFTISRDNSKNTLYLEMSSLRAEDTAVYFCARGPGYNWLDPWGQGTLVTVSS VL: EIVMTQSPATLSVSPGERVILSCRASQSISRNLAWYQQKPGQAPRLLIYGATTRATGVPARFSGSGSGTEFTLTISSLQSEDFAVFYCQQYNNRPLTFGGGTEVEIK | s⁻¹ | 0.000626 |
| H2M3563N (antibody, V domains shown, Hybridoma antibody, human variable regions, mouse IgG2 Fc) VH: EVHLVESGGGLVQPGRSLRLSCAASGFTFDDYTMHWVRQAPGKGLEWVSDISWNSGSIGYADSVKGRFTVSRDNAKNSLYLQMNSLRGEDTALYYCAKDMSGYGHYGKYGMDVWGQGTTVTVSS VL: DIQMTQSPSSLSASVGDRVTITCRASQSIRSYLNWYQQKPGKVPKLLIYAASSLQSGVPSRFSGSGSGTDFTLTINSLQPDDFATYYCQQTYSNPPITFGQGTRLEIK | s⁻¹ | 0.000119 |
| H2M2777N (antibody, V domains shown, Hybridoma antibody, human variable regions, mouse IgG2 Fc) VH: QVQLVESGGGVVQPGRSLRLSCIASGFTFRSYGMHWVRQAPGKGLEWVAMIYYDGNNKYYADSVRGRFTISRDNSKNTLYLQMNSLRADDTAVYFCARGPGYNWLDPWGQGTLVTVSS VL: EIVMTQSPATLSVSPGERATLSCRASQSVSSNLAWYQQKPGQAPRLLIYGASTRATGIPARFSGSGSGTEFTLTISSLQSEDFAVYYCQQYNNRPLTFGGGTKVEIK | s⁻¹ | 0.00163 |
| H2M2707N (antibody, V domains shown, Hybridoma antibody, human variable regions, mouse IgG2 Fc) VH: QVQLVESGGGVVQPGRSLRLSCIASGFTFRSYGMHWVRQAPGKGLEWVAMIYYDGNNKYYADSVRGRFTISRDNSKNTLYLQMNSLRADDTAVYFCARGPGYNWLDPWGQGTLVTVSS VL: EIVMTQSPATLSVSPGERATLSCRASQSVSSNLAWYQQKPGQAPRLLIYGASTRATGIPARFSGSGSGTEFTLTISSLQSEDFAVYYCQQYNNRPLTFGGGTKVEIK | s⁻¹ | 0.00187 |
| H2M2885N (antibody, V domains shown, Hybridoma antibody, human variable regions, mouse IgG2 Fc) VH: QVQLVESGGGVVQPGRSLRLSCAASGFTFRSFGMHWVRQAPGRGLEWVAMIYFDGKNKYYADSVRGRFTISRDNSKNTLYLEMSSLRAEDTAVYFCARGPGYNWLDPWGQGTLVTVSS VL: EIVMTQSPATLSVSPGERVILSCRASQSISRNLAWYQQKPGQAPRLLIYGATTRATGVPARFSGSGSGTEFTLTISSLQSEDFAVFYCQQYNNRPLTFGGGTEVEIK | s⁻¹ | 0.000651 |

query: Look at this binder and give its reported koff. H1M2692N (antibody, V domains shown, Hybridoma antibody, human variable regions, mouse IgG1 Fc) VH: EVQLVESGGGLVQPGGSLRLSCAASGFSFDDYTMHWVRQPPGKGLEWVSGISWNSGSIGYADSVKGRFTISRDNAKNSLYLQMNSLRAGDTALYYCAKDNSGYGYYYYYGMDVWGQGTTVTVSS VL: EIVMTQSPATLSVSPGERATLSCRASQSVSSNLAWYQQKPGQAPRLLIYGASTRATGIPARFSGSGSGTEFTLTISSLQSEDFAVYYCQQYYNWPLTFGGGTKVEIK
result: 0.000434

query: Look at this binder and give its reported koff. H2M2690N (antibody, V domains shown, Hybridoma antibody, human variable regions, mouse IgG2 Fc) VH: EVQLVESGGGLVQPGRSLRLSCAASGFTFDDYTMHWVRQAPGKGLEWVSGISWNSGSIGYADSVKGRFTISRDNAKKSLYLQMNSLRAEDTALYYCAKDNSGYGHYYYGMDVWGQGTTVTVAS VL: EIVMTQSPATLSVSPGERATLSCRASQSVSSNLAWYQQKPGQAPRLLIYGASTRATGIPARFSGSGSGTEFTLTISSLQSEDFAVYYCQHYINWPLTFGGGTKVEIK
result: 0.000202

query: Look at this binder and give its reported koff. H2M2774N (antibody, V domains shown, Hybridoma antibody, human variable regions, mouse IgG2 Fc) VH: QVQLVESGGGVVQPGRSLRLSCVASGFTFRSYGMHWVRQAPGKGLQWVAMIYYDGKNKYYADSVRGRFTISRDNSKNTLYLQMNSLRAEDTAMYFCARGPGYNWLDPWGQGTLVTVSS VL: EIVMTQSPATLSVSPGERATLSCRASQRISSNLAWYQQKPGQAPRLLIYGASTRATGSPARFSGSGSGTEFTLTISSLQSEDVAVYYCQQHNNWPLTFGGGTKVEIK
result: 0.000918
